Data origin: patent US11912693B2

- target: human sphingosine-1-phosphate receptor 1 (S1P1) (Homo sapiens (Human), UniProt P21453)
- protocol: Inhibition of cAMP production (HTRF cAMP HiRange), S1P1 CHO-K1 cells
- Format: cell-based
- appliedConditions: inhibition of cAMP production, S1P1 CHO-K1 cells
- Sequence (P21453 whole entry, looked up): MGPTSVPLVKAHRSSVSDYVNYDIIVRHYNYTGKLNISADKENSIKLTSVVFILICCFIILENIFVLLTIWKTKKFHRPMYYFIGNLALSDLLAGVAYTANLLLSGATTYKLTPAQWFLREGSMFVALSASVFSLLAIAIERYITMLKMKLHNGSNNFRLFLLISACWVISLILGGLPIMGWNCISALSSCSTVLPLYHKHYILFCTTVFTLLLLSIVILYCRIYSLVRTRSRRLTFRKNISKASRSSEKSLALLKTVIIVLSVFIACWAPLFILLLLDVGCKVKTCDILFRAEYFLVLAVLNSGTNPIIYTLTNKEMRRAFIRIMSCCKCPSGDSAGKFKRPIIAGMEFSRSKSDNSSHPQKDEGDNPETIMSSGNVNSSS
# hS1P1 cAMP pEC50 values compiled below

COc1ccc(-c2noc(-c3ccc4c(c3)nnn4C(C)C)n2)cc1OC <6.5
CC(C)n1ccc2cc(-c3nc(-c4ccccc4C(F)(F)F)cs3)ccc21 <6.5
CC(C)n1nnc2cc(-c3cc(-c4ccccc4F)c[nH]3)ccc21 <6.5

get_value(item= COCC1(COC)CC(=O)c2cc(-c3nc(-c4cccnc4)no3)ccc2O1 , readout=hS1P1 cAMP pEC50) returns <6.5

get_value(item= COc1ccccc1-c1noc(-c2ccc3c(c2)nnn3C(C)C)n1 , readout=hS1P1 cAMP pEC50) returns >6.5

get_value(item= CC(C)n1nnc2cc(-c3nc4c(o3)COc3ccccc3-4)ccc21 , readout=hS1P1 cAMP pEC50) returns >6.5

get_value(item= Brc1ccccc1-c1nc(-c2ccc3[nH]nnc3c2)no1 , readout=hS1P1 cAMP pEC50) returns <6.5

get_value(item= CC(C)n1nnc2cc(-c3noc(-c4cccc5c4CCC5=O)n3)ccc21 , readout=hS1P1 cAMP pEC50) returns >6.5

get_value(item= CCC1(CC)CC(=O)c2cc(-c3nc(-c4ccc5ncoc5c4)no3)ccc2O1 , readout=hS1P1 cAMP pEC50) returns >6.5

* * *

# hS1P1 B-arrestin2 pEC50 values compiled below
- target: human sphingosine-1-phosphate receptor 1 (S1P1) (Homo sapiens (Human), UniProt P21453)
- protocol: β-Arrestin2 recruitment assay (PathHunter), S1P1 CHO-K1 cells
- Type: cell-based
- appliedConditions: β-arrestin2 recruitment, S1P1 CHO-K1 cells
- Sequence (P21453 whole entry, looked up): as above
- Sequence (P32121 whole entry partner, looked up): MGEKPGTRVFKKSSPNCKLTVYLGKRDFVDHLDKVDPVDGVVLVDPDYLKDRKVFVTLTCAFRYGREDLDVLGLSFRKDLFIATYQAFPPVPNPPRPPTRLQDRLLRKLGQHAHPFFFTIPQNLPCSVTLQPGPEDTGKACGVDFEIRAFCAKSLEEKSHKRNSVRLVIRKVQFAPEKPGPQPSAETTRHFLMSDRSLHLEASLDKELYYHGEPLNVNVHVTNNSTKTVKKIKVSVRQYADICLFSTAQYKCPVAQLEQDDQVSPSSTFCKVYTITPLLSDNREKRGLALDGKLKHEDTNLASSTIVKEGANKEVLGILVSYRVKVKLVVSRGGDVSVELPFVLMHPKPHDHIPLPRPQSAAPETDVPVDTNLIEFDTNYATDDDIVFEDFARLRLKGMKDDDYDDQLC

compound	value
CCC1(CC)CC(=O)c2cc(-c3nc(-c4cccc(Cl)c4)no3)ccc2O1	>5
CCC1(CC)CC(=O)c2cc(-c3nc(-c4cncc(F)c4)no3)ccc2O1	>5
COCC1(COC)CC(=O)c2cc(-c3nc(-c4cccnc4)no3)ccc2O1	<5
COc1cc(C)c2nc(-c3ccc4c(c3)nnn4C(C)C)oc2c1	<5

get_value(item= FC(F)(F)c1cc(-c2noc(-c3ccc4c(c3)nnn4C3CCCC3)n2)ccc1OCc1cccnc1 , readout=hS1P1 B-arrestin2 pEC50) returns <5

get_value(item= Brc1ccccc1-c1nc(-c2ccc3c(c2)nnn3C2CCCC2)no1 , readout=hS1P1 B-arrestin2 pEC50) returns >5

* * *

# Emax values compiled below
- target: human sphingosine-1-phosphate receptor 1 (S1P1) (Homo sapiens (Human), UniProt P21453)
- protocol: Inhibition of cAMP production (HTRF cAMP HiRange), S1P1 CHO-K1 cells
- Assay type: cell-based
- appliedConditions: CHO-K1; efficacy (SPAN) normalized to fingolimod; read-out: hS1P1 cAMP SPAN

Worked examples, 2 molecules total:
CCC1(CC)CC(=O)c2cc(-c3nc(-c4cccnc4OC)no3)ccc2O1 > 75%
CCC1(CC)CC(=O)c2cc(-c3nc(-c4ccccc4C)no3)ccc2O1 > 75%

get_value(item= CC(C)n1nnc2cc(-c3nc4c(o3)CCCc3ccccc3-4)ccc21 , readout=Emax) returns < 75%

get_value(item= c1ccc(-c2noc(-c3ccc4c(c3)nnn4C3CCCCC3)n2)cc1 , readout=Emax) returns < 75%

get_value(item= COc1cccc(-c2coc(-c3ccc4c(c3)nnn4C(C)C)n2)c1 , readout=Emax) returns < 75%
